System: 616215-338-R-J1-PDC complex spheroid viability
Experiment: Anticancer human tumor 616215-338-R-J1-PDC patient-derived colon adenocarcinoma cell line growth inhibition [RAS]; active = viability on the fitted dose curve at most 10% of control; inactive = the rest
Conditions: second compound 0.3 µM; first compound 0.1 µM
A correct response names exactly one class from Y for active, N for inactive

Which outcome was entered for the molecule O=C(c1ccc(F)c(F)c1Nc1ccc(I)cc1F)N1CC(O)([C@@H]2CCCCN2)C1 + CCn1c(-c2cccnc2C(C)OC)c2c3cc(ccc31)N1CCOC(CC(NC(=O)C(C(C)C)N(C)C(=O)C3(F)CCN(C(=O)C#CC(C)(C)N(C)C)CC3)C(=O)N3CCCC(N3)C(=O)OCC(C)(C)C2)C1 in this test?
N

Entry O=C(c1ccc(F)c(F)c1Nc1ccc(I)cc1F)N1CC(O)([C@@H]2CCCCN2)C1 + CCn1c(-c2cc(N3CCN(C)CC3)cnc2C(C)OC)c2c3cc(ccc31)-c1csc(n1)CC(NC(=O)C1CC1C)C(=O)N1CCCC(N1)C(=O)OCC(C)(C)C2 : call = ?
Y

Returns: the outcome recorded for CC(Nc1ccc2c(c1)OCCn1cc(N3C(=O)OCC3C(F)F)nc1-2)C(N)=O (stereo not drawn) + CCn1c(-c2cc(N3CCN(C)CC3)cnc2C(C)OC)c2c3cc(ccc31)-c1csc(n1)CC(NC(=O)C1CC1C)C(=O)N1CCCC(N1)C(=O)OCC(C)(C)C2 in this assay.
N

# fetch the recorded call for Nc1ccn(C2OC(CO)C(O)C2(F)F)c(=O)n1 (stereo not drawn) + CCn1c(-c2cc(N3CCN(C)CC3)cnc2C(C)OC)c2c3cc(ccc31)-c1csc(n1)CC(NC(=O)C1CC1C)C(=O)N1CCCC(N1)C(=O)OCC(C)(C)C2 here
N

Kindly provide the recorded test outcome for the following molecule: CCN1CCN(Cc2ccc(Nc3ncc(F)c(-c4cc(F)c5nc(C)n(C(C)C)c5c4)n3)nc2)CC1 + CCn1c(-c2cc(N3CCN(C)CC3)cnc2C(C)OC)c2c3cc(ccc31)-c1csc(n1)CC(NC(=O)C1CC1C)C(=O)N1CCCC(N1)C(=O)OCC(C)(C)C2
N

Recorded call for CC1(O)CCCC1n1c(=O)c(C(F)F)cc2cnc(NC3CCN(S(C)(=O)=O)CC3)nc21 (stereo not drawn) + CCn1c(-c2cc(N3CCN(C)CC3)cnc2C(C)OC)c2c3cc(ccc31)-c1csc(n1)CC(NC(=O)C1CC1C)C(=O)N1CCCC(N1)C(=O)OCC(C)(C)C2 ?
N

Hello, I am checking results. What call was entered for NC1c2ccccc2OC12CCN(c1cnc3c(N4CCCc5ncccc54)n[nH]c3n1)CC2 (stereo not drawn) + CCn1c(-c2cccnc2C(C)OC)c2c3cc(ccc31)N1CCOC(CC(NC(=O)C(C(C)C)N(C)C(=O)C3(F)CCN(C(=O)C#CC(C)(C)N(C)C)CC3)C(=O)N3CCCC(N3)C(=O)OCC(C)(C)C2)C1 ?
N

Identify the outcome logged in this assay for the molecule shown: CC(C)NCC(C(=O)N1CCN(c2ncnc3c2C(C)CC3O)CC1)c1ccc(Cl)cc1 (stereo not drawn) + CCn1c(-c2cc(N3CCN(C)CC3)cnc2C(C)OC)c2c3cc(ccc31)-c1csc(n1)CC(NC(=O)C1CC1C)C(=O)N1CCCC(N1)C(=O)OCC(C)(C)C2
N

====

System: 616215-338-R-J1-PDC complex spheroid viability
Test: Anticancer human tumor 616215-338-R-J1-PDC cell line growth inhibition [RAS];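 also: spheroids exposed to agents for seven days before viability readout; 100% = DMSO vehicle control viability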
Details: second compound 0.316 µM; first compound 3.16 µM; hits give low values
Value type: viability, T/C

Lab request: please report viability, T/C under test system 616215-338-R-J1-PDC complex spheroid viability for CCC(CC)c1cc(NC2CCC(N)C2)n2nccc2n1 (stereo not given) + C=CC(=O)N1CCN(c2nc(OCC3CCCN3C)nc3c(F)c(-c4nc(N)cc(C)c4C(F)(F)F)c(Cl)cc23)C(C)C1
1.41%

Request body: readout viability, T/C, system 616215-338-R-J1-PDC complex spheroid viability, query CC(C)NCC(C(=O)N1CCN(c2ncnc3c2C(C)CC3O)CC1)c1ccc(Cl)cc1 (stereo not given) + C#Cc1c(F)ccc2cc(O)cc(-c3ncc4c(N5CC6CCC(C5)N6)nc(OCC56CCCN5CC(F)C6)nc4c3F)c12 . Return the value.
81.5%

Write down the reported viability, T/C of NC1c2ccccc2OC12CCN(c1cnc3c(N4CCCc5ncccc54)n[nH]c3n1)CC2 (stereo not given) + C#Cc1c(F)ccc2cc(O)cc(-c3ncc4c(N5CC6CCC(C5)N6)nc(OCC56CCCN5CC(F)C6)nc4c3F)c12 , test system: 616215-338-R-J1-PDC complex spheroid viability.
49.2%

Query the reported viability, T/C for 616215-338-R-J1-PDC complex spheroid viability; item: Cc1nc(N2CCC3(CC2)COC(C)C3N)c(CO)nc1Sc1ccnc(N)c1Cl (stereo not given) + C=CC(=O)N1CCN(c2nc(OCC3CCCN3C)nc3c(F)c(-c4nc(N)cc(C)c4C(F)(F)F)c(Cl)cc23)C(C)C1
106%

Look up viability, T/C with 616215-338-R-J1-PDC complex spheroid viability for this compound: C[C@@H](NC(=O)c1ncnc(N)c1Cl)c1ncc(C(=O)Nc2cc(C(F)(F)F)c(Cl)cn2)s1 + C#Cc1c(F)ccc2cc(O)cc(-c3ncc4c(N5CC6CCC(C5)N6)nc(OCC56CCCN5CC(F)C6)nc4c3F)c12
87.9%

Sourced from PubChem BioAssay AID2060898
